Molecular target: human NaP2b (SLC34A2) (Homo sapiens, UniProt O95436)
Construct: host or cells: HEK293
Sequence (O95436 1-690): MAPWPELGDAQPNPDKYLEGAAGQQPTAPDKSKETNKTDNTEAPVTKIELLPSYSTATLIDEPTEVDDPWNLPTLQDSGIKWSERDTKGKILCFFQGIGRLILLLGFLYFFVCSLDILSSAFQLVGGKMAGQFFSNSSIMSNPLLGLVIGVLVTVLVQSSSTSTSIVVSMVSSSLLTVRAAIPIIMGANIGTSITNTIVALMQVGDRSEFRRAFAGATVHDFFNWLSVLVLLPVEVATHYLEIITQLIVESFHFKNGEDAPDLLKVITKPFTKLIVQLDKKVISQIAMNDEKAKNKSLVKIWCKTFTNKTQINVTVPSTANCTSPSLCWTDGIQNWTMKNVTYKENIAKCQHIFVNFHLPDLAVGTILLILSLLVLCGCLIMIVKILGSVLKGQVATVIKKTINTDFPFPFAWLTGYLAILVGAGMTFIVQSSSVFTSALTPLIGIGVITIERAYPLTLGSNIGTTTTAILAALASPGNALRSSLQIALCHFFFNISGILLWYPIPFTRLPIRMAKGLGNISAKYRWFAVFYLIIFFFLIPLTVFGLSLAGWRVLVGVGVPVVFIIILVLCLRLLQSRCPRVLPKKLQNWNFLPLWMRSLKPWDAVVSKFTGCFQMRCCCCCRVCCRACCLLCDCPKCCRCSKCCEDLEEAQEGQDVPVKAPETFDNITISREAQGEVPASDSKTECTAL
Experiment: Inhibition of NaP2b-mediated Pi (33P) uptake in transfected HEK293 cells, human NaP2b
Type: cell-based
Conditions: read-out: pIC50 range for human NaP2b (converted)
Protocol: HEK293 cells were obtained from the American Type Culture collection and propagated per their instructions. […] After incubation for 3-30 minutes at room temperature, assay mixtures were removed, and the cells were washed twice with ice cold stop solution (137 mM sodium chloride, 14 mM Tris, pH 7.4). Cells were lysed by addition of 20 μL 0.1% Tween 80 followed by 100 μL scintillation fluid, and counted using a TopCount (Perkin Elmer). […]
observable: IC50

Below, 6 compounds whose answers are already recorded.
- compound.structure: "CCN(CC)c1ccc(NC(=O)c2cccc(C(=O)N(C)CCN(C)CCOCCOCCOCCN=[N+]=[N-])c2)c(-c2cc(C(=O)N[C@H]3CCCc4ccccc43)ccn2)c1"
  IC50: "< 1000 nM"
- compound.structure: "CCN(CC)c1ccc(NC(=O)c2cccc(CSCCOCCOCCOCCOCCOCCOCCOCCOC)c2)c(-c2cc(C(=O)NCc3cccc(C(F)(F)F)c3)ccn2)c1"
  IC50: "< 1000 nM"
- compound.structure: "CCN(CC)c1ccc(NC(=O)c2cccc(CCCOCCOCCOCCOCCC(=O)N3CCN(C(=O)c4cccc(CCCOCCOCCOCCOCCOCCOCCOCCOCCOC)c4)CC3)c2)c(-c2cc(C(=O)NCc3cccc(C(F)(F)F)c3)ccn2)c1"
  IC50: "1000 to 7940 nM"
- compound.structure: "CCN(CC)c1ccc(NC(=O)c2cccc(C(=O)N(C)CCN3CCN(C(=O)N(C)CCOCCOCCOCCC(=O)N4CCN(CCOCCO)CC4)CC3)c2)c(-c2cc(C(=O)N[C@H]3CCCc4ccccc43)ccn2)c1"
  IC50: "10000 to 31600 nM"
- compound.structure: "CCN(CC)c1ccc(NC(=O)c2cccc(CCCOCCOCCOCCOCCC(=O)NC(CO)(CO)CO)c2)c(-c2cc(C(=O)NCc3cccc(C(F)(F)F)c3)ccn2)c1"
  IC50: "< 1000 nM"
- compound.structure: "O=C(O)CCSCc1cccc(C(=O)Nc2ccc(N3CCCCC3)cc2-c2cc(NCc3cccc(C(F)(F)F)c3)ncn2)c1"
  IC50: "1000 to 7940 nM"

For record O=C(O)Cc1cccc(SCc2cccc(C(=O)Nc3ccc(N4CCCCC4)cc3-c3cc(C(=O)N[C@H]4CCCc5ccccc54)ccn3)c2)c1 the listed IC50 is < 1000 nM

For record CN(CCN1CCCN(S(C)(=O)=O)CC1)C(=O)c1cccc(C(=O)Nc2ccc(N3CCCCC3)cc2-c2cc(C(=O)N[C@H]3CCCc4ccccc43)ccn2)c1 the listed IC50 is 1000 to 7940 nM

For record CCN(CC)c1ccc(NC(=O)c2cccc(CCCOCCOCCOCCOCCC(=O)N3CCN(S(=O)(=O)c4ccc(C)cc4)CC3)c2)c(-c2cc(C(=O)NCc3cccc(C(F)(F)F)c3)ccn2)c1 the listed IC50 is < 1000 nM

For record CCN(CC)c1ccc(NC(=O)c2cccc(COCCOCCOCCOCCOCCOCCN(CCO)CCO)c2)c(-c2cc(C(=O)NCc3cccc(C(F)(F)F)c3)ccn2)c1 the listed IC50 is 1000 to 7940 nM

For record CCN(CC)c1ccc(NC(=O)c2cccc(CSCCOCCOCCOCCOCCC(=O)O)c2)c(-c2cc(C(=O)NCc3cccc(C(F)(F)F)c3)ccn2)c1 the listed IC50 is < 1000 nM

For record CC(C)(C)OC(=O)CCOCCOCCOCCOCCCc1cccc(C(=O)Nc2ccc(OC3CCC3)cc2-c2cc(C(=O)N[C@H]3CCCc4ccccc43)ccn2)c1 the listed IC50 is 1000 to 7940 nM

For record CCN(CC)c1ccc(NC(=O)c2cccc(CSCCOCCOCCOCCOCCC(=O)N(CCO)CCO)c2)c(-c2cc(C(=O)N[C@H]3CCCc4ccccc43)ccn2)c1 the listed IC50 is < 1000 nM

For record CCCN(CCC)c1ccc(NC(=O)c2cccc(C(=O)N(C)CCOCCOCCOCCC(=O)O)c2)c(-c2cc(C(=O)NCc3cccc(C(F)(F)F)c3)ccn2)c1 the listed IC50 is 1000 to 7940 nM

For record CCN(CC)c1ccc(NC(=O)c2cccc(CCCOCCOCCOCCOCCC(=O)N3CCN(c4ccc(OCCOCCOCCOC)cc4)CC3)c2)c(-c2cc(C(=O)NCc3cccc(C(F)(F)F)c3)ccn2)c1 the listed IC50 is < 1000 nM
